Measured values drawn from patent US10442773B2 for this set.

- EXPERIMENT_DESCRIPTION: pH-solubility profile of amorphous Letermovir (BCS approach)
- Type: physicochemical
- STATED_CONDITIONS: standard buffer solutions, aqueous buffer, thermodynamic from solid; pH 3.9 (pKa1); 37°C±1°C, standard buffer, stirring 24 hours; read-out: Letermovir solubility
MEASURED_METRIC: solubility at 24 h
Be sure to follow the number with its unit.

(Q) Which solubility at 24 h reading was recorded for the molecule COc1cccc(N2CCN(C3=Nc4c(F)cccc4[C@H](CC(=O)O)N3c3cc(C(F)(F)F)ccc3OC)CC2)c1 [Letermovir] ?
(A) 0.4 mg/mL

====

- EXPERIMENT_DESCRIPTION: pH-solubility profile of amorphous Letermovir (BCS approach)
- Assay type: physicochemical
- STATED_CONDITIONS: standard buffer solutions, 37 °C, aqueous buffer, thermodynamic from solid; pH range 1 to 7.5, summary of Table 3; read-out: solubility of Letermovir over the pH-range of 1 to 7.5
MEASURED_METRIC: solubility at 24 h

(Q) Which solubility at 24 h reading was recorded for the molecule "COc1cccc(N2CCN(C3=Nc4c(F)cccc4[C@H](CC(=O)O)N3c3cc(C(F)(F)F)ccc3OC)CC2)c1" ?
(A) ≥ 400 µg/mL
